- target: recombinant Mab‐SaS (Mycobacteroides abscessus, UniProt B1MAQ5)
- Sequence (B1MAQ5 entry or part of it): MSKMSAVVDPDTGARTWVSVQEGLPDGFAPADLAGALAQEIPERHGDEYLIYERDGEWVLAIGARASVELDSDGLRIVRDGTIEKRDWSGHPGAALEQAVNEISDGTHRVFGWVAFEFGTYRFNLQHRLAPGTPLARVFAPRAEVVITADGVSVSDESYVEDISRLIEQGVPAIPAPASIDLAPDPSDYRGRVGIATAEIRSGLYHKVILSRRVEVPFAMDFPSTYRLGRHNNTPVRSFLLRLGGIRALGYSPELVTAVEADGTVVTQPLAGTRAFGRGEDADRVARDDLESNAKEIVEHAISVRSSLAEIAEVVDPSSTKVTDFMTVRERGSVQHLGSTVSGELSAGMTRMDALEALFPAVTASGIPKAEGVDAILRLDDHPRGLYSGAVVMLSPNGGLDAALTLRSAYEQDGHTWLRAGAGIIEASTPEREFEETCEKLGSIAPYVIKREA
- test.description: Mab‐SaS enzyme inhibition, direct fluorometric assay
- Type: biochemical, Mycobacterium abscessus
- recorded.conditions: read-out: residual activity at 100 μM (%)
Categories are defined by ranges of remaining activity at 100 µM, namely lo: < 60%; mid: ≥ 60% and < 80%; hi: ≥ 80%

- compound: "Cc1c(OCC(F)(F)F)ccnc1C[S@+]([O-])c1nc2ccccc2[nH]1 [Levolansoprazole]"
  answer.label: "mid"
- compound: "CNC(C)C1CCC(N)C(OC2C(N)CC(N)C(OC3OCC(C)(O)C(NC)C3O)C2O)O1 (stereo not shown) [Gentamycin]"
  answer.label: "hi"
- compound: "NC[C@H](O)c1ccc(O)c(O)c1 [Norepinephrine]"
  answer.label: "mid"
- compound: "CC(CCc1ccccc1)NCC(O)c1ccc(O)c(C(N)=O)c1 (stereo not shown) [Labetalol]"
  answer.label: "lo"
- compound: "Nc1ncnc2c1ncn2[C@@H]1O[C@H](CSCC[C@H](N)C(=O)O)[C@@H](O)[C@H]1O [S‐adenosyl‐L‐homocysteine]"
  answer.label: "hi"

Q) Could you place Nc1ccn([C@@H]2O[C@H](CO)[C@@H](O)[C@H]2O)c(=O)n1 [Cytidine] in its proper category? Many thanks.
A) hi

Q) Could you place COc1ccc2nc([S@@+]([O-])Cc3ncc(C)c(OC)c3C)[nH]c2c1 [Esomeprazole] in its proper category? Many thanks.
A) lo

Q) Could you place N=C(N)c1ccc(/C=C/c2ccc(C(=N)N)cc2O)cc1 [Hydroxystilbamidine] in its proper category? Many thanks.
A) lo

====

# key: entry, value: Ki
- target: recombinant Mab‐SaS (Mycobacteroides abscessus)
- test.description: Mab‐SaS enzyme inhibition, direct fluorometric assay
- recorded.conditions: Ki, steady‐state kinetics, competitive inhibition equation
Only the number, expressed in µM, is required.

Sample records with Ki:
- compound: "COc1ccc2nc([S@@+]([O-])Cc3ncc(C)c(OC)c3C)[nH]c2c1 [Esomeprazole]"
  unit.info: "µM"
  Ki: 3.7
- compound: "N=C(N)c1ccc(/C=C/c2ccc(C(=N)N)cc2O)cc1 [Hydroxystilbamidine]"
  unit.info: "µM"
  Ki: 5.4

Kindly review the next compound as well.
Noted for COc1cc(Nc2ncc(F)c(Nc3ccc4c(n3)N(COP(=O)(O)O)C(=O)C(C)(C)O4)n2)cc(OC)c1OC [Fostamatinib] : its Ki reads 11.7

====

- target: recombinant Mab‐SaS (Mycobacteroides abscessus, UniProt B1MAQ5)
- test.description: Mab‐SaS enzyme inhibition, direct fluorometric assay
# key: entry, value: IC50

- compound: "COc1cc(Nc2ncc(F)c(Nc3ccc4c(n3)N(COP(=O)(O)O)C(=O)C(C)(C)O4)n2)cc(OC)c1OC"
  IC50: "21 µM"

Noted for COc1ccc2nc([S@@+]([O-])Cc3ncc(C)c(OC)c3C)[nH]c2c1 : its IC50 reads 13.6 µM

Noted for N=C(N)c1ccc(/C=C/c2ccc(C(=N)N)cc2O)cc1 [Hydroxystilbamidine] : its IC50 reads 11.5 µM

The measured values listed here are drawn from paper PMC12305296.
